- System: SW-620 colon
- PROTOCOL: NCI-60 one-dose screen, 48 h (100 = growth as untreated, 0 = no growth, -100 = all killed)
- ASSAY_CONTEXT: 10 µM unless noted
The panel holds about 83,000 compounds, 20% with a hit somewhere; the sample as a whole holds those more often.
Provide the reported growth of each item.
Enter your answer as a number in %; do not include the unit.

Q: Can you look up the measured growth of CC(NC(=O)C(C)Oc1ccc(Cl)cc1Cl)C(=O)O (stereo not given) for me?
Result: 105

Q: Data request, read-out growth, for CC1=NN(c2ccccc2Cl)C(=O)/C1=C\c1cn(S(=O)(=O)c2ccc(C)cc2)c2ccccc12
Result: 98.4

Q: Item under review: COc1ccc(-c2cc(C(=O)Nc3nc4cc(C)c(C)cc4s3)nc3cc(-c4ccccc4)nn23)cc1OC . Reported growth?
Result: 47.3

Q: Report growth for CCC(C)CC(CC)NCCN1CCN(C(CC)CC(C)CC)C1=S (stereo not given) please.
Result: 29.1

Q: Given the entry N#Cc1c2ccccc2c2n1-c1ccccc1OC(c1ccccc1)C2=O (stereo not given) , report its measured growth.
Result: 56.9

Q: Look up growth for this molecule: COc1ccc(-c2c3c(nn2-c2ccc(N)cc2)CCc2cnoc2-3)cc1OC
Result: 97.6

Q: Returns the measured growth for the input molecule. Input: Nc1cc(Cl)c(S(N)(=O)=O)cc1S(N)(=O)=O
Result: 107

Q: Item under review: O=C(/C(=C/c1cccc([N+](=O)[O-])c1)c1ccccc1)c1ccccc1 . Reported growth?
Result: 10.9

Q: Consider the molecule Cc1nn(-c2ccccc2)c2nc3c(nc12)C(=O)CCC3 and give its measured growth.
Result: 105

Q: Data request, read-out growth, for O=NC1CC=CCC1c1ccccc1 (stereo not given)
Result: 105

Q: Which growth is reported for this molecule? C/C(=C\CCc1ccsc1)CC/C=C(\C)CCCN1CCC(CO)CC1
Result: -29.8

Q: # query: growth of entry O=C1/C(=C/c2ccc([N+](=O)[O-])o2)Oc2ccc(Cl)cc21
Result: -78.7

Q: Can you look up the measured growth of O=C(Cn1ccnc1)NC(c1ccccc1)c1ccccc1 for me?
Result: 106

Q: Data request, read-out growth, for O=C(Nc1ccc(Cl)cc1)Nc1ccc(Nc2nncc3ccccc23)cc1
Result: 27

Q: // query growth value for entry CCc1[nH]nc(-c2ccc(OC)cc2)c1-c1ccccc1OCCN(CC)CC
Result: 104

Q: Item CC(=O)c1cc(C(=O)c2ccc3c(c2)Sc2ccccc2N3)c2c(C)cc(C)cn12 has what recorded growth?
Result: 20.8

Q: Consider the molecule CCCCSc1cc(C)nc(N)n1 and give its measured growth.
Result: 97.8

Q: Data request, read-out growth, for Cc1c(N(C)CS(=O)(=O)O)c(=O)n(-c2ccccc2)n1C
Result: 108

Q: Quick one: growth for CN(C)c1nc(-c2ccco2)n2nc(-c3ccco3)cc2n1 ?
Result: 93.4

Q: State the recorded growth for this entry: COc1ccc2nc3cc(Cl)ccc3c(N3CCN(c4ccnc(Nc5ccc(F)cc5)n4)CC3)c2c1
Result: 89.2

Q: Would you kindly share the measured growth for COc1cc2c(c(OC)c1OC)-c1ccc(NN(C(=O)c3ccccc3)C(=O)c3ccccc3)c(=O)cc1[C@@H](NC(C)=O)CC2 (tested in a mixture with another compound) ?
Result: 17.1

Q: Look up growth for this molecule: Clc1ccc2c(Nc3ccc4oc(NCCN5CCCC5)nc4c3)ccnc2c1
Result: 78.4

Q: Using the record for COc1ccc2nc(NC(=O)c3cc(-c4ccc(F)cc4)n4nc(-c5ccccc5)cc4n3)sc2c1 , report its growth.
Result: 94.7

Q: Tell me the measured growth of COc1ccc2nccc(/C=C/c3ccnc4ccc(OC)cc34)c2c1 , please.
Result: 104

Q: So what does the record say about growth for COc1ccc(-c2nc3sccn3c2-c2ccnc(S(C)(=O)=O)n2)cc1 ?
Result: 91.1

Q: What measured growth goes with CN(C)c1ccc(/C=C(\C#N)c2nc3ccccc3c(=O)[nH]2)cc1 ?
Result: 82.6

Q: Data request, read-out growth, for C=C1c2c(C)nn(-c3ccc(C#CCOC4OC(CO)C(O)C(O)C4O)cc3)c2N(C)C23C[C@H]1C1(C)c4c(C)nn(-c5ccc(C#CCOC6OC(CO)C(O)C(O)C6O)cc5)c4N(C)C(C)(C[C@H]12)C3 (stereo not given in full)
Result: 11.6

Q: Form field: reported growth of COc1ccc2c(c1)C(=O)/C(=C/c1cccc(OCC(=O)c3ccccc3)c1)CC2
Result: 66

Q: Could you share which growth value was measured for Nc1ccc(C2=Nc3cccc4cccc(c34)S2)cc1 ?
Result: 97.2

Q: For the molecule CCCc1nn(C)c2c(=O)[nH]c(-c3cc(S(=O)(=O)N4CCN(C)CC4)ccc3OCC)nc12 , what growth is on record?
Result: 115

Q: Suppose we examine the molecule COc1cc(C2CC(=O)Nc3c2cc(Br)c2ccccc32)cc(Br)c1OC (stereo not given) ; what growth value has been reported?
Result: 17.6

Q: Need growth of CC(C)[O-].CC(C)[O-].CN(CCN(C)Cc1cc(F)cc(F)c1[O-])Cc1cc(F)cc(F)c1[O-].[Ti+4] , thanks.
Result: 0.502

Q: For the molecule shown here, COc1ccc(-c2nn(-c3cccc(Cl)c3)cc2C2CC(c3ccccc3)=NN2C(C)=O)cc1 (stereo not given) , give the reported growth.
Result: 73.6

Q: GET /values?readout=growth&item= COc1ccc(-n2nc3c(c2-c2ccc(OC)c(OC)c2)-c2oncc2CC3)cc1
Result: 99

Q: Returns the measured growth for the input molecule. Input: O=C1C(=O)c2ccc(Br)cc2-c2cc(Br)ccc21
Result: -1.44

Q: Given the molecule CC(=O)Oc1ccc(C23c4ccccc4C2(OC(C)=O)c2cc(OC(C)=O)ccc23)cc1 (stereo not given) , what is its reported growth?
Result: 80.3

Q: Give the measured growth of O=C(c1ccccc1)c1ccco1 .
Result: 110

Q: Fill blank: measured growth of the molecule c1ccc(N2CCN(c3nncc4ccccc34)CC2)nc1 is ____.
Result: 104

Q: Quick one: growth of COc1ccc(C(=O)/C=C/c2c(Cl)nc3c(c(C)nn3-c3ccccc3)c2-c2ccc(Br)cc2)cc1 ?
Result: 110

Q: I have this molecule here, COc1ccc2c(c1)C(=O)c1c-2c(OCCCN(C)C)nc2cc(Br)ccc12 , and I need its recorded growth.
Result: 35.7
